pIC50: −log10 of the molar value.
Recorded pIC50 values (Non-receptor tyrosine-protein kinase TYK2 [556-871] (Homo sapiens, UniProt P29597)) are given below.
recordedMetric: pIC50

>>> print(df.to_string())
                            structurestring                              systemtested  measuredresult
0  CO[C@]1(c2cc(C)cc(-c3cc(C)n4cnc(NC(N)=O)cc34)n2)CCOC1  Non-receptor tyrosine-protein kinase TYK2 [556-871] (Homo sapiens, UniProt P29597)            8.70
1  CO[C@]1(c2cc(OCC3CS(=O)(=O)C3)cc(-n3nc(C)c4cnc(NC(N)=O)cc43)n2)CCOC1  Non-receptor tyrosine-protein kinase TYK2 [556-871] (Homo sapiens, UniProt P29597)            8.15
2  CO[C@@]1(c2cc(OCC3COC3)cc(-n3cc(C)c4cnc(NC(N)=O)cc43)n2)CCOC1  Non-receptor tyrosine-protein kinase TYK2 [556-871] (Homo sapiens, UniProt P29597)            8.70
3  CO[C@@]1(c2cc(C)cc(-n3nc(C)c4cnc(NC(N)=O)cc43)n2)CCOC1  Non-receptor tyrosine-protein kinase TYK2 [556-871] (Homo sapiens, UniProt P29597)            8.52
4  CO[C@]1(c2cc(OCC3CS(=O)(=O)C3)cc(-n3cc(C)c4cnc(NC(N)=O)cc43)n2)CCOC1  Non-receptor tyrosine-protein kinase TYK2 [556-871] (Homo sapiens, UniProt P29597)            7.85
5  CO[C@]1(c2cc(C)cc(-n3nc(-c4cnoc4)c4cnc(NC(N)=O)cc43)n2)CCOC1  Non-receptor tyrosine-protein kinase TYK2 [556-871] (Homo sapiens, UniProt P29597)            8.70
6  COCCOc1cc(-n2nc(C)c3cnc(NC(N)=O)cc32)nc([C@]2(OC)CCOC2)c1  Non-receptor tyrosine-protein kinase TYK2 [556-871] (Homo sapiens, UniProt P29597)            8.70
7  CO[C@]1(c2cc(OCC3COC3)cc(-n3cc(C)c4cnc(NC(N)=O)cc43)n2)CCOC1  Non-receptor tyrosine-protein kinase TYK2 [556-871] (Homo sapiens, UniProt P29597)            7.96
8  CO[C@]1(c2cc(C)cc(-n3nc(-c4cnn(C)c4)c4cnc(NC(N)=O)cc43)n2)CCOC1  Non-receptor tyrosine-protein kinase TYK2 [556-871] (Homo sapiens, UniProt P29597)            8.40
